# System: Vhr1 (UniProt P40522)
# Sequence: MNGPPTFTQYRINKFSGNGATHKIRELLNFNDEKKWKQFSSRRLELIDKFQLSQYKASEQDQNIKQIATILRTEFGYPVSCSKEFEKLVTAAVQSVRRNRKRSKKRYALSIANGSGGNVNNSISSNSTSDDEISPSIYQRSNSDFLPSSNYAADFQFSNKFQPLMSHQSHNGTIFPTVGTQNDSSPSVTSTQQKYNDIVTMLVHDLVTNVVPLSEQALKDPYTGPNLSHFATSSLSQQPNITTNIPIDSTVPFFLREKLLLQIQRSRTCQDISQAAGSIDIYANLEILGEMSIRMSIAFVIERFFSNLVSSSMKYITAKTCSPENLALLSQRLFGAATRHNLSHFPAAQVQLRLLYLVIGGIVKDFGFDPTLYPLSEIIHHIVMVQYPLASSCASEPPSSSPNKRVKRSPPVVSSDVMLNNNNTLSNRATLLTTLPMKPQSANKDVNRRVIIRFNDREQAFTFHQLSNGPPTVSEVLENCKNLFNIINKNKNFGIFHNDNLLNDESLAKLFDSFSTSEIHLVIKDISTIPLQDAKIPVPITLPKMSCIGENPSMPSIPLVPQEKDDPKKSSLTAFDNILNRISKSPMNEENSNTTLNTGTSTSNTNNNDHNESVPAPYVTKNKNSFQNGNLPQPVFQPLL
# Method Notes: PBM E-score (8-mer binding enrichment) (E-score (-0.5 to 0.5)); higher = stronger / more preferred TF binding
# Details: protein concentration: 200 nM; construct: GST-full length
Whole data set: some 33,000 sequences, median “E-score (-0.5 to 0.5)” near -0.012, cut for the highest 2% near 0.27. The full list was thinned out, with the highest values kept by preference.
Please mark fulfilled if the recorded PBM E-score is equal to or greater than -0.03, and not fulfilled if it falls below.

{"Sequence Input": "CCATATCG", "System": "Vhr1 (UniProt P40522)", "Cat": "fulfilled"}

Please tell me: is the sequence CGTAATCA at or over -0.03 in terms of PBM E-score?
fulfilled

# check: PBM E-score of AATTGACT is greater than or equal to -0.03
fulfilled

Has CCCCGCTA a recorded PBM E-score greater than or equal to -0.03?
not fulfilled

State whether the measured PBM E-score reaches -0.03, counting equality as reaching it, for AATCCATT
fulfilled

Assess whether reported PBM E-score for CTCTTCAG sits at -0.03 or higher.
not fulfilled

Does the reported PBM E-score for TAGTCTGA fall at or above the -0.03 mark?
fulfilled

Is reported PBM E-score greater than or equal to -0.03 here: ACCGACTA
fulfilled

---

# System: Vhr1 (UniProt P40522)
# Sequence: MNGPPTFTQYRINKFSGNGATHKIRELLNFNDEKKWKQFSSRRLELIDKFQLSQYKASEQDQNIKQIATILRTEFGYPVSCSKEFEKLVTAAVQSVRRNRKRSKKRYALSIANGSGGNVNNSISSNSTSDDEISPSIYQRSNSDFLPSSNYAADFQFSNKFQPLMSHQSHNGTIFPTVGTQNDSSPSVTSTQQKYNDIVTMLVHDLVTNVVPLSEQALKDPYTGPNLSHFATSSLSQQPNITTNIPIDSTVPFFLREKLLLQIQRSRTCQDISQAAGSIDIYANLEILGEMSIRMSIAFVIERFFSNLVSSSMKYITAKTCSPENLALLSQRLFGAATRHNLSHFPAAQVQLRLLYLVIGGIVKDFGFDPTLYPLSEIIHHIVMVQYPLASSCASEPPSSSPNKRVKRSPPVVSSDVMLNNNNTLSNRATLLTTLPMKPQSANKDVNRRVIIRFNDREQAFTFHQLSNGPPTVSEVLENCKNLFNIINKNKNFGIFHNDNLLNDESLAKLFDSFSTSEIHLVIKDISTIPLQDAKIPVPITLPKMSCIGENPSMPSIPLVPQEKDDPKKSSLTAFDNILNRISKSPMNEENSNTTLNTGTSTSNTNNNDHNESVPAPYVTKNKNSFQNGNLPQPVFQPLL
# Method Notes: PBM E-score (8-mer binding enrichment) (E-score (-0.5 to 0.5)); higher = stronger / more preferred TF binding
# Details: protein concentration: 200 nM; construct: GST-full length
Over roughly 33,000 sequences, “E-score (-0.5 to 0.5)” has its median near -0.012; the highest 2% begin near 0.27. Shown is part of a subset that was picked to be rich in the highest values.
Binary classification by PBM E-score, with 0.01 as an inclusive lower bound for 1 (yes); all other cases are 0 (no).

Take a look at these entries with their results.
{"Sequence Input": "CCGGTGGC", "Cat": "0 (no)"}
{"Sequence Input": "ACATATCA", "Cat": "1 (yes)"}
{"Sequence Input": "CTAAGAAA", "Cat": "0 (no)"}
{"Sequence Input": "CCGTCATA", "Cat": "1 (yes)"}
{"Sequence Input": "CAGTCATG", "Cat": "1 (yes)"}
{"Sequence Input": "AGGGTTGC", "Cat": "0 (no)"}
{"Sequence Input": "CACACAGA", "Cat": "1 (yes)"}
{"Sequence Input": "AACACAGC", "Cat": "1 (yes)"}

Say whether ACATAGAC shows PBM E-score of 0.01 or more.
1 (yes)

Please indicate if the recorded PBM E-score for AATAGCAC meets or exceeds 0.01.
0 (no)
